- tested-on: T1, HLA-DR15 (HLA-DRB1*15:01) (human)
- T1 construct: mature; purified from homozygous EBV-transformed lymphoblastoid cells with antibody L243
- assay-details: competition ELISA vs biotin-A3 152-166
No end group written: not given here.
Documented relative affinity across a set of binders

Consider the worked cases shown below.
ESLLPVMQHLAKNVV-NH2 [CCNB1 374-388]	19
EPILVDTASPSPMET-NH2 [CCNB1 118-132]	400

Q: I am curious: what relative affinity value has been reported for MEMKILRALNFGLGR-NH2 [CCNB1 285-299] ?
A: 0.03

Q: Here is the next binder: VDVEQHTLAKYLMEL-NH2 [CCNB1 315-329]
A: 7
